- targetUnderTest: Voltage-gated inwardly rectifying potassium channel KCNH2 (Homo sapiens)
- assayMethodText: qHTS Assay for Small Molecule Inhibitors of the Human hERG Channel Activity (AID 588834);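 also: lower thallium flux fluorescence means stronger hERG block; nearly all actives have a fitted effect of over 50% in size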
- cond: U2OS BacMam hERG, FluxOR thallium flux fluorescence; series mostly up to 46.1 µM
Inconclusive results are not listed. Activity calls are given as the source filed them. Calls follow the shape of the dose curve; as a rule, active = well fitted inhibition curve with a large enough effect; inconclusive = small, poorly fitted or top-dose-only effect; inactive = flat fitted curve, though single readings scatter.
Can you answer with just one of these options? label 1 for active, label 0 for inactive

querySmiles	label
CCOc1cc(-c2nccc3cc(OC)c(OC)cc23)cc(OCC)c1OCC	label 0
CN(Cc1ccccc1)Cc1ccccc1	label 0
CCCCCCCCCCCCCCCCCCCCCC(=O)Nc1ccn([C@@H]2O[C@H](CO)[C@@H](O)[C@@H]2O)c(=O)n1	label 0
C=C1CC[C@H](O)CC1=C/C=C1\CCC[C@]2(C)[C@@H]([C@H](C)CC[C@@H](O)C(C)(C)O)CC[C@@H]12	label 0

Proceed to the following item.
# outcome recorded in this test, key = COc1ccc2c(c1)N(C[C@H](C)CN(C)C)c1ccccc1S2
label 1
